experiment: Individual predicted steady‐state exposures; type: in vivo, human; settings: human, plasma, AUCss,0–24 geometric mean (CV), Race: Chinese and Taiwanese
measure: AUC

smiles_code=NC(=O)[C@@H]1CC[C@@H]2CN1C(=O)N2OS(=O)(=O)O measure=AUC result="151 µg·h/mL"
smiles_code=CC(C)(O/N=C(\C(=O)N[C@@H]1C(=O)N2C(C(=O)[O-])=C(C[n+]3ccccc3)CS[C@H]12)c1csc(N)n1)C(=O)O measure=AUC result="884 µg·h/mL"

====

experiment: Individual predicted steady‐state exposures; format: in vivo, human; settings: human, plasma, intravenous, AUCss,0–24 geometric mean (CV), Patient population: cUTI
Quick reference for AUC among some compounds
measure: AUC (µg·h/mL)

smiles_code=NC(=O)[C@@H]1CC[C@@H]2CN1C(=O)N2OS(=O)(=O)O uom=µg·h/mL readout_number=138
smiles_code=CC(C)(O/N=C(\C(=O)N[C@@H]1C(=O)N2C(C(=O)[O-])=C(C[n+]3ccccc3)CS[C@H]12)c1csc(N)n1)C(=O)O uom=µg·h/mL readout_number=979

====

assay: Individual predicted steady‐state exposures; format: in vivo, human; conditions: human, plasma, intravenous, 500 mg, AUCss,0–24 geometric mean (CV), Day 3 CrCL > 150–180 mL/min (2000‐500 mg q8 h)
measure: AUC (µg·h/mL)

molecule="CC(C)(O/N=C(\\C(=O)N[C@@H]1C(=O)N2C(C(=O)[O-])=C(C[n+]3ccccc3)CS[C@H]12)c1csc(N)n1)C(=O)O [Ceftazidime, ceftazidime]" measure=AUC readout_number=652
molecule="NC(=O)[C@@H]1CC[C@@H]2CN1C(=O)N2OS(=O)(=O)O [Avibactam, avibactam]" measure=AUC readout_number=103

====

assay: Individual predicted steady‐state exposures; type: in vivo, human; details: human, plasma, AUCss,0–24 geometric mean (CV), Obesity: Missing
measure: AUC (µg·h/mL)

molecule="NC(=O)[C@@H]1CC[C@@H]2CN1C(=O)N2OS(=O)(=O)O [Avibactam, avibactam]" readout_number=172
molecule="CC(C)(O/N=C(\\C(=O)N[C@@H]1C(=O)N2C(C(=O)[O-])=C(C[n+]3ccccc3)CS[C@H]12)c1csc(N)n1)C(=O)O [Ceftazidime, ceftazidime]" readout_number=959

====

assay: Individual predicted steady‐state exposures; format: in vivo, human; conditions: human, plasma, AUCss,0–24 geometric mean (CV), Obesity II (34.9 ≤ BMI < 39.9 kg/m^2)
Entries and their AUC values follow.
measure: AUC (µg·h/mL)

molecule="CC(C)(O/N=C(\\C(=O)N[C@@H]1C(=O)N2C(C(=O)[O-])=C(C[n+]3ccccc3)CS[C@H]12)c1csc(N)n1)C(=O)O [Ceftazidime, ceftazidime]" readout_number=894
molecule="NC(=O)[C@@H]1CC[C@@H]2CN1C(=O)N2OS(=O)(=O)O [Avibactam, avibactam]" readout_number=141

====

assay: Final avibactam PopPK model; type: in vivo, human; details: human, plasma, intravenous, θ1: CL, typical value
measure: clearance (mL/min)

smiles_code=NC(=O)[C@@H]1CC[C@@H]2CN1C(=O)N2OS(=O)(=O)O readout_number=170

====

experiment: Individual predicted steady‐state exposures; assay type: in vivo, human; details: human, plasma, AUCss,0–24 geometric mean (CV), Asian population: China (only)
Below is a list of entries, each paired with its recorded AUC value.
measure: AUC (µg·h/mL)

compound="CC(C)(O/N=C(\\C(=O)N[C@@H]1C(=O)N2C(C(=O)[O-])=C(C[n+]3ccccc3)CS[C@H]12)c1csc(N)n1)C(=O)O [Ceftazidime, ceftazidime]" uom=µg·h/mL readout_number=892
compound="NC(=O)[C@@H]1CC[C@@H]2CN1C(=O)N2OS(=O)(=O)O [Avibactam, avibactam]" uom=µg·h/mL readout_number=153
